These entries and their values trace back to patent US10851067B2.

# Measured target: Kv7.2/7.3 (Homo sapiens, UniProt O43525+O43526)
# Measurement protocol: Kv7.2/7.3 Activation Assay, QPatch single concentration screen
# Type: cell-based
# Parameters: host or cells: HEK cells, tetracycline-inducible expression
# Condition set: Kv7.2/Kv7.3 co-expressing HEK cells, compound concentration 3 μM, steady-state current at end of 2 s pulse to −30 mV
Property measured: Kv7.2/7.3 Activity: increase over baseline in current

Please review the entries below; each comes with its answer.
[
  {
    "Molecule": "CC1(n2c(NC(=O)CC(C)(C)C(F)(F)F)nc3c(OC(F)F)cc(C#N)cc32)CCC1 [Example 419]",
    "Value": "+ (1.2-2.9 (+))"
  },
  {
    "Molecule": "CC1(C)C[C@@H]1C(=O)Nc1nc2c(F)cc(C#N)cc2n1C(C)(C)C [Example 372]",
    "Value": "++ (3-3.9 (++))"
  },
  {
    "Molecule": "CC(O)(CC(=O)Nc1nc2cccc(C#N)c2n1C1(C)CCC1)c1ccccc1 (single isomer, unassigned) [Example 468]",
    "Value": "+ (1.2-2.9 (+))"
  },
  {
    "Molecule": "CC(C)(O)c1cc(F)c2nc(NC(=O)CC(C)(C)C(F)(F)F)n(C3CCC3)c2c1F [Example 385]",
    "Value": "O"
  },
  {
    "Molecule": "CC(O)(CC(=O)Nc1nc2cccc(C#N)c2n1C1(C)CCC1)c1ccccc1 (single isomer, unassigned) [Example 375]",
    "Value": "+ (1.2-2.9 (+))"
  },
  {
    "Molecule": "CC1(n2c(NC(=O)CC(C)(C)C(F)(F)F)nc3ccc(C#N)cc32)CCC1 [Example 361]",
    "Value": "++ (3-3.9 (++))"
  }
]

Exam item: For the molecule shown here, CC(C)(C)CC(=O)Nc1nc2ccc(C(C)(C)O)c(F)c2n1C1(C)CCC1 [Example 481] , give the reported Kv7.2/7.3 Activity: increase over baseline in current.
Marked response: O

Exam item: Thanks! And CC(C)(C)CC(=O)Nc1nc2cc(F)c(C3(O)CCC3)c(F)c2n1C1CCC1 [Example 424] ?
Marked response: O

Exam item: Thanks! And CC(C)(CC(=O)Nc1nc2ccc(C#N)c(F)c2n1C1CCC1)CC(F)(F)F [Example 345] ?
Marked response: + (1.2-2.9 (+))

Exam item: Thanks! And CC(O)(CC(=O)Nc1nc2cc(F)c(C#N)cc2n1C1(C)CCC1)c1ccccc1F (single isomer, unassigned) [Example 478] ?
Marked response: + (1.2-2.9 (+))

Exam item: Thanks! And CC(C)(C)CC(=O)Nc1nc2ccc(C(C)(C)O)cc2n1CC(F)(F)F [Example 440] ?
Marked response: + (1.2-2.9 (+))

Exam item: Thanks! And CC(C)(C)CC(=O)Nc1nc2ccc(OC(F)F)cc2n1C1CCC1 [Example 389] ?
Marked response: ++ (3-3.9 (++))

Exam item: Thanks! And CC1(n2c(NC(=O)CC(C)(C)C(F)(F)F)nc3c(F)cc(OC(F)F)cc32)CCC1 [Example 461] ?
Marked response: + (1.2-2.9 (+))

Exam item: Thanks! And CC(C)(C)CC(=O)Nc1nc2cc(F)c(C#N)c(F)c2n1C1CCC1 [Example 356] ?
Marked response: + (1.2-2.9 (+))

Exam item: Thanks! And CC(C)(C)CC(=O)Nc1nc2ccc(C#N)c(F)c2n1C(C)(C)C [Example 387] ?
Marked response: ++ (3-3.9 (++))

Exam item: Thanks! And C[C@H](C(=O)Nc1nc2ccc(C(C)(C)O)cc2n1CC(F)(F)F)C(C)(C)C [Example 407] ?
Marked response: ++ (3-3.9 (++))

Exam item: Thanks! And CC(C)(O)c1ccc2nc(NC(=O)CC3CC(F)(F)C3(F)F)n(C3CCC3)c2c1 (stereo not shown) [Example 353] ?
Marked response: + (1.2-2.9 (+))

Exam item: Thanks! And CC(C)(O)CC(=O)Nc1nc2ccc(OC(F)F)c(F)c2n1C1(C)CCC1 [Example 351] ?
Marked response: + (1.2-2.9 (+))

Exam item: Thanks! And CC(C)(O)c1cc(F)c2nc(NC(=O)CC3CC(F)(F)C3(F)F)n(C3CCC3)c2c1 (stereo not shown) [Example 405] ?
Marked response: ++ (3-3.9 (++))

Exam item: Thanks! And CC(C)(C)CC(=O)Nc1nc2ccc(N3CC(F)(F)C3)c(F)c2n1C1CCC1 [Example 475] ?
Marked response: ++ (3-3.9 (++))

Exam item: Thanks! And CC(C)(C)CC(=O)Nc1nc2cc(F)ccc2n1C1CCC1 [Example 449] ?
Marked response: ++ (3-3.9 (++))

Exam item: Thanks! And CC(C)(O)c1ccc2nc(NC(=O)Cc3cccc(F)c3)n(C3(C)CCC3)c2c1 [Example 435] ?
Marked response: O

Exam item: Thanks! And CC(C)(CC(=O)Nc1nc2ccc(C#N)cc2n1C1(C)CCC1)C1CC1 [Example 379] ?
Marked response: ++ (3-3.9 (++))

Exam item: Thanks! And CC(C)(CC(=O)Nc1nc2cc(F)c(OC(F)F)cc2n1C1CCC1)C1CC1 [Example 363] ?
Marked response: + (1.2-2.9 (+))

Exam item: Thanks! And CC(C)(C)CC(=O)Nc1nc2ccc(Cl)c(C#N)c2n1C1CCC1 [Example 439] ?
Marked response: + (1.2-2.9 (+))
